biological target: human FGFR3 wild type enzyme (cytoplasmic domain) (Homo sapiens, UniProt P22607)
Sequence (P22607 397-806 limits assumed): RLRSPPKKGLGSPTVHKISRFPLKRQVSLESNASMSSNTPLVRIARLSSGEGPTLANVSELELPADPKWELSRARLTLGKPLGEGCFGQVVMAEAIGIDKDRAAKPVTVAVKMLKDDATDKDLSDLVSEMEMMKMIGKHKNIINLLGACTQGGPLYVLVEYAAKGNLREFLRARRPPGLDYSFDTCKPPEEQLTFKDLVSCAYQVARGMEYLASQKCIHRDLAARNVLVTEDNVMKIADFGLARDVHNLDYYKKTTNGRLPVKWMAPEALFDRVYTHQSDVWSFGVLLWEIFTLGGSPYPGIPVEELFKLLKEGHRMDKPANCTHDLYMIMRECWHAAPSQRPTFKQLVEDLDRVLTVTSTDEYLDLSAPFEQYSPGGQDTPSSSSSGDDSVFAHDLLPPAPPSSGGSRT
OUTCOME_MEASURE: IC50 (nM)

>>> data_value("CC(Nc1c(-c2nc3ccc(N4CCOCC4)c(F)c3[nH]2)c(=O)[nH]c2ccccc12)c1ncccn1 (single isomer, unassigned) [Compound 23a]")
0.591
>>> data_value("C[C@H](Nc1c(-c2nc3ccc(C(=O)N4CCOCC4)cc3[nH]2)c(=O)[nH]c2ccccc12)c1ccccn1")
0.826
>>> data_value("C[C@H](Nc1c(-c2nc3cc(C(F)(F)F)c(N(C)C4CCN(C)CC4)cc3[nH]2)c(=O)[nH]c2ccccc12)c1ccccn1")
0.367
>>> data_value("CC(C)C(Nc1c(-c2nc3ccc(N4CCOCC4)cc3[nH]2)c(=O)[nH]c2ccccc12)c1ncccn1 (single isomer, unassigned) [Compound 32a]")
0.368
>>> data_value("C[C@@H]1CN(c2ccc3nc(-c4c(N[C@@H](C)c5ncccn5)c5ccccc5[nH]c4=O)[nH]c3c2)CCO1 (single isomer, unassigned) [Compound 40a]")
0.313

1 = CC(Nc1c(-c2nc3cc(C(F)(F)F)c(N4CCN(C)CC4)cc3[nH]2)c(=O)[nH]c2ccccc12)c1ncccn1 (single isomer, unassigned) [Compound 25a]
2 = C[C@H](Nc1c(-c2nc3ccc(N4CCC(C(=O)O)CC4)cc3[nH]2)c(=O)[nH]c2ccccc12)c1ccccn1
Select one. Lower IC50: 1 or 2 Answer format: the label of the selected item.
2
(2: 0.809 nM, 1: 1.22 nM)

a = COC(=O)C1CN(c2ccc3nc(-c4c(N[C@@H](C)c5ccccn5)c5ccccc5[nH]c4=O)[nH]c3c2)CCO1 (mixture of isomers) [Compound 59]
b = CC(Nc1c(-c2nc3ccc(N4C[C@@H](C)O[C@H](C)C4)cc3[nH]2)c(=O)[nH]c2ccccc12)c1ncccn1 (single isomer, unassigned) [Compound 37b]
Given a and b , report the one with the higher recorded IC50. Answer format: the label of the selected item.
b

I = C[C@H](Nc1c(-c2nc3ccc(N4CCN(C)C(=O)C4)cc3[nH]2)c(=O)[nH]c2ccccc12)c1ccccn1
II = CC(Nc1c(-c2nc3ccc(N4C[C@H](C)O[C@@H](C)C4)cc3[nH]2)c(=O)[nH]c2ccccc12)c1ncccn1 (single isomer, unassigned) [Compound 39a]
III = CC(Nc1c(-c2nc3ccc(N4CCN(CCC(F)(F)F)CC4)cc3[nH]2)c(=O)[nH]c2ccccc12)c1ncccn1 (single isomer, unassigned) [Compound 41b]
Descending sort on IC50 required. Your answer should be the labels, listed in the requested order.
III, I, II

###

Listed here are molecules together with their documented IC50.
system: NIH/3T3 cells transfected with the same control vector; assay: NIH/3T3 mock cell proliferation assay (counter assay, general toxicity); assay type: cell-based; conditions: Mus musculus, NIH3T3, 72 h, 72-hr incubation, CellTiter Glo, starting with 30 μM; counter assay for general toxicity; read-out: NIH/3T3 MOCK CTG (IC50)
Just the number please, in µM, no unit attached.

Record excerpt, results attached:
>>> data_value("CC(Nc1c(-c2nc3cc(C(F)(F)F)c(N4CCC(C(=O)O)CC4)cc3[nH]2)c(=O)[nH]c2ccccc12)c1ncccn1 (single isomer, unassigned) [Compound 58]")
8.24
>>> data_value("CC(Nc1c(-c2nc3ccc(N4CCO[C@@H](C)C4)cc3[nH]2)c(=O)[nH]c2ccccc12)c1ncccn1 (single isomer, unassigned) [Compound 26a]")
2.58
>>> data_value("C[C@H](Nc1c(-c2nc3ccc(N4CCOCC4)cc3[nH]2)c(=O)[nH]c2ccccc12)c1ccccn1 [Compound 55]")
0.46
>>> data_value("C[C@H](Nc1c(-c2nc3cc(C(F)(F)F)c(N4CCN(C)CC4)cc3[nH]2)c(=O)[nH]c2ccccc12)c1ccccn1 [Compound 14]")
3.01

Which value of IC50 has been reported for CC(C)N1CCN(c2ccc3nc(-c4c(N[C@@H](C)c5ccccn5)c5ccccc5[nH]c4=O)[nH]c3c2)CC1 [Compound 56] in the records?
0.77

###

target: NIH/3T3 cells overexpressing FGFR3 WT-TACC3 fusion protein (Homo sapiens, UniProt P22607); construct: NIH/3T3 FGFR3 WT-TACC3 CTG (IC50); other: 72-hr incubation, CellTiter Glo, starting with 10 μM; fused on or other part: Q9Y6A5 (Transforming acidic coiled-coil-containing protein 3); experiment: NIH/3T3 FGFR3 WT-TACC3 cell proliferation assay; type: cell-based; details: 72-hr incubation, CellTiter Glo, starting with 10 μM; read-out: NIH/3T3 FGFR3 WT-TACC3 CTG (IC50)
Sequence (P22607 whole entry, change not shown, the tested form may be a part): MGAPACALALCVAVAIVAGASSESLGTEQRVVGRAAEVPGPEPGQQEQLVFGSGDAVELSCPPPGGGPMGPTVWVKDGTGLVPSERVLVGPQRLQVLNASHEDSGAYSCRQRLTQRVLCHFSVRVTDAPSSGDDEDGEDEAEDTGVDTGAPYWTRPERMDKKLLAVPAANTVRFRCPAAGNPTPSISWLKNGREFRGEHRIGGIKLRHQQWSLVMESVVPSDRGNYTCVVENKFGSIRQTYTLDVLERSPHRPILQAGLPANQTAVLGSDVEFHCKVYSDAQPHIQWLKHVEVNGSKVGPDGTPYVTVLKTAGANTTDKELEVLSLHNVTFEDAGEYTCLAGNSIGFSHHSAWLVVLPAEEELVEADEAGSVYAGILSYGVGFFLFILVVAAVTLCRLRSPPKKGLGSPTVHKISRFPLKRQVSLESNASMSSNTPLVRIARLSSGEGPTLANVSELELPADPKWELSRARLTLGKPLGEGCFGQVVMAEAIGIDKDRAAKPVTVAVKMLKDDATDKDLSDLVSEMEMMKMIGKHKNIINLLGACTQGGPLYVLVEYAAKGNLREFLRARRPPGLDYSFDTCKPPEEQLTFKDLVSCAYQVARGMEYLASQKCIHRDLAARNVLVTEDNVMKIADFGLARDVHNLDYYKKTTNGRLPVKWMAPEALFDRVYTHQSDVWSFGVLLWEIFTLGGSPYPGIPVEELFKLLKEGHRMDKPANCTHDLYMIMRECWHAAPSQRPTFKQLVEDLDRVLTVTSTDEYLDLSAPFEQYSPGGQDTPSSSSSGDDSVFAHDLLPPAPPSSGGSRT
OUTCOME_MEASURE: GI50 (nM)

1 = CC(Nc1c(-c2nc3ccc(N4CCC(OC(F)(F)F)CC4)cc3[nH]2)c(=O)[nH]c2ccccc12)c1ncccn1 (single isomer, unassigned) [Compound 43a]
2 = COC(=O)C1CN(c2ccc3nc(-c4c(N[C@@H](C)c5ccccn5)c5ccccc5[nH]c4=O)[nH]c3c2)CCO1 (mixture of isomers) [Compound 59]
3 = O=c1[nH]c2ccccc2c(NC(c2ncccn2)C2CC2)c1-c1nc2ccc(N3CCOCC3)cc2[nH]1 (single isomer, unassigned) [Compound 33a]
List by increasing GI50. Use the labels to give the ranking in the order requested.
3, 1, 2
(3: 9.24 nM, 1: 20.3 nM, 2: 31.9 nM)

###

biological target: NIH/3T3 cells overexpressing FGFR3 WT-TACC3 fusion protein (Homo sapiens, UniProt P22607); construct: NIH/3T3 FGFR3 WT-TACC3 CTG (IC50); other: 72-hr incubation, CellTiter Glo, starting with 10 μM; fused on or other part: Q9Y6A5 (Transforming acidic coiled-coil-containing protein 3); test: NIH/3T3 FGFR3 WT-TACC3 cell proliferation assay; format: cell-based; details: 72-hr incubation, CellTiter Glo, starting with 10 μM; read-out: NIH/3T3 FGFR3 WT-TACC3 CTG (IC50)
OUTCOME_MEASURE: GI50 (nM)

The cases that follow already have their GI50 on record.
>>> data_value("CC(Nc1c(-c2nc3ccc(N4CCOCC4)cc3[nH]2)c(=O)[nH]c2ccccc12)c1cnccn1 (single isomer, unassigned) [Compound 35b]")
127
>>> data_value("CC(Nc1c(-c2nc3ccc(N4C[C@H](C)O[C@@H](C)C4)cc3[nH]2)c(=O)[nH]c2ccccc12)c1ncccn1 (single isomer, unassigned) [Compound 39a]")
6.58
>>> data_value("C[C@@H]1CN(c2ccc3nc(-c4c(N[C@@H](C)c5ncccn5)c5ccccc5[nH]c4=O)[nH]c3c2)CCO1 (single isomer, unassigned) [Compound 40a]")
3.15
>>> data_value("C[C@H](Nc1c(-c2nc3ccc(N4CCOCC4)cc3[nH]2)c(=O)[nH]c2ccccc12)c1ncccn1")
3.61

a = CC(Nc1c(-c2nc3ccc(N4CCO[C@@H](C)C4)cc3[nH]2)c(=O)[nH]c2ccccc12)c1ncccn1 (single isomer, unassigned) [Compound 26a]
b = CC(Nc1c(-c2nc3ccc(C4CCOCC4)cc3[nH]2)c(=O)[nH]c2ccccc12)c1ncccn1 (single isomer, unassigned) [Compound 29a]
Please let me know which one, a or b , has a lower measured GI50 value. # respond with the chosen item's label
a
(a: 2.22 nM, b: 8.46 nM)

###

biological target: NIH/3T3 cells overexpressing FGFR3 WT-TACC3 fusion protein (Homo sapiens, UniProt P22607); construct: NIH/3T3 FGFR3 WT-TACC3 CTG (IC50); other: 72-hr incubation, CellTiter Glo, starting with 10 μM; fused on or other part: Q9Y6A5 (Transforming acidic coiled-coil-containing protein 3); experiment: NIH/3T3 FGFR3 WT-TACC3 cell proliferation assay; format: cell-based; details: 72-hr incubation, CellTiter Glo, starting with 10 μM; read-out: NIH/3T3 FGFR3 WT-TACC3 CTG (IC50)
OUTCOME_MEASURE: GI50 (nM)

>>> data_value("C[C@@H](Nc1c(-c2nc3ccc(N4CCOCC4)cc3[nH]2)c(=O)[nH]c2ccccc12)c1ncccn1")
58.5

A = C[C@H](Nc1c(-c2nc3ccc(N4CCOCC4)cc3[nH]2)c(=O)[nH]c2c(F)cccc12)c1ccccn1
B = COC(=O)C1CN(c2ccc3nc(-c4c(N[C@@H](C)c5ccccn5)c5ccccc5[nH]c4=O)[nH]c3c2)CCO1 (single isomer, unassigned) [Compound 62]
C = CC(Nc1c(-c2nc3ccc(N4C[C@@H](C)O[C@@H](C)C4)cc3[nH]2)c(=O)[nH]c2ccccc12)c1ncccn1 (single isomer, unassigned) [Compound 22a]
D = CC(Nc1c(-c2nc3ccc(N4CCN(CCC(F)(F)F)CC4)cc3[nH]2)c(=O)[nH]c2ccccc12)c1ncccn1 (single isomer, unassigned) [Compound 41a]
E = CC(Nc1c(-c2nc3cc(C(F)(F)F)c(N4CCOCC4)cc3[nH]2)c(=O)[nH]c2ccccc12)c1ncccn1 (single isomer, unassigned)
Ordering: ascending GI50. # the answer lists labels in the order requested
D, C, E, A, B
